Test: soluble fraction after stress (log2 fold change); higher = more stays soluble; pooled small domains, quantitative proteomics
Settings: stress: pH 4
Quick rule for you: soluble fraction (log2) at -1 or higher means label 1, lower means label 0.

Query: Reported soluble fraction (log2) at or above -1? `HMAGGNHPTRLELLDSAAHIAERDGTSALTVDAITKSAGHAKGTFYIHFDDRADLLVEMHRR`
Reply: label 1

Query: Could you verify whether the entry `HMEDVTLSLVVGEDLDGERLDVFLTWKLDRTRSQVQALIRDGKVRLEQGQRARPSMVVRSGMGISVSLEPR` shows soluble fraction (log2) of no less than -1?
Reply: label 0

Query: Check if soluble fraction (log2) >= -1 (inclusive). Item: `HMLDLSDFEVVRDLYLSEQIWNVGDLIIARSKKDDTYKAWEIIRKGTNYVTGIDESHKVEKIWLHDILI`
Reply: label 0

Query: # check: soluble fraction (log2) of `HMAAQLAHVPAVTGRPLAEAQRILADNRLNAQVTQQPVAEPKLDGVVIAQKITEGTRTMRGATVPLIVGKY` is greater than or equal to -1
Reply: label 1

Query: Check this sequence for soluble fraction (log2) at or above -1: `HMSVAVKAPLQGTVMKVNVKPGDTVTKGAPVAVIEALKMENDVPAPQDGVVASVDVKSGDSVKTDQVLLTL`
Reply: label 1

----------
Assay: soluble fraction after stress (log2 fold change); higher = more stays soluble; pooled small domains, quantitative proteomics
Details: stress: pH 4
Kindly return label 1 if reported soluble fraction (log2) is no lower than 0.1; return label 0 if it is lower.

INSERT INTO measurements (residue_codes, cat) VALUES
  ('HMHSLLDDIPNVGEKRKRILLTHFQSLEEIKAATVEELERLPQINRKAAESIYTFFHSQPIR', 'label 1');

Field: next sequence
Query: Textbook exercise: given the entry `HMLAVPADFAEKLQSLRSQLASDDLDASDAFGRLQPFIKALYPAQLEALRKAVDDFDFVEATRLIDQLPQ` , state whether its soluble fraction (log2) is greater than or equal to 0.1.
Reply: label 0

----------
soluble fraction (log2) overview
Assay: soluble fraction after stress (log2 fold change); higher = more stays soluble; pooled small domains, quantitative proteomics
Conditions: stress: pH 4
Answer with the value's number alone.

Example cases with answers are listed next.
INSERT INTO results (residue_codes, value_type, value_measured) VALUES
  ('HMDTITDSYTLEKGKLRAKVMEYELPESKKKEYSATFEYRGVYYHMIGIIEKADFEEILKNLHFP', 'soluble fraction (log2)', -0.53),
  ('HMAKLGITQREQEVLQLLVTGKTYKEIAAELFISLPTVKTHVSNIYSKAKVRNRLELSNLINYI', 'soluble fraction (log2)', -1.22),
  ('HMVTVQEGETLSAIAARSGVSVKDLVRANEIRNPDSIQEGQVLFVP', 'soluble fraction (log2)', 0.165);

Query: Record request: soluble fraction (log2) value, item `HMAETLLWADAAQEGLNRIVAAQPILVRISAAKRLRDASEQAAKAAGVSTVEIGHVQHASESLQFGDA`
Reply: -0.0823

Query: I would be grateful if you could share the reported soluble fraction (log2) for `HMKFTSEKDISLLELVKAKMGFVSNTKARNVIKIGQIMVSGKVIKIPSTLIKPGTEVELARRV` .
Reply: 0.32

Query: Returns the measured soluble fraction (log2) for the input sequence. Input: `HMDEIDYSKYSITTSNRIINIDGVQSKVELFDVSGRSIQSTMVTGKFSSRPLNAGFYIIHVDGYSVKVSV`
Reply: -1.19

Query: What value of soluble fraction (log2) has been reported for the following sequence? `HMFGNTGETSGTGVAFTRSPVDGENKIFGEFLVNAQGEDVVAGIRTPQPISEMEQAFPEVYSKFESVAEIL`
Reply: -0.305

Query: I am curious: what soluble fraction (log2) value has been reported for `HMSEVSEILTRARFFAGVKTDAELSTLLKIPYGTLIGWKTRKNIPESRIAQMALILGIRRDTLIPA` ?
Reply: -0.11

Query: Looking for the measured soluble fraction (log2) of `HMGETWYEILEISSDATTEEIRQAYFEQARQYHPDTNPGELAREWFYQVQEAYETLSDPDRRRQYDESIKG` , can you help?
Reply: -2.16

Query: Name the recorded soluble fraction (log2) for `HMDFDLIAIFEEQFARALSPIEINIIKEWKNSNYSDDMIVKALKEAVKSQVFNFRYIERILINWSQNG` .
Reply: -1.64

Query: State the recorded soluble fraction (log2) for this entry: `HMVAISNTSGLAGVAYWIQSNIPKGIDIRKDNPGIVTIKNWIDEEYRKGRTTTISEEEMFKLVREYMPEL`
Reply: -1.12

Query: Could you tell me which soluble fraction (log2) is on file for `HMRGSRIFSGDVSPLTLPANSPFFSGYTEFKPGDVYVERSATNIAMWEWKSQPGGYTWVKTADIA` ?
Reply: 0.22

Query: Endpoint output: soluble fraction (log2) of `HMRVPTVIGMDEGTAKATLANASLKSNIVYESDETKENGKVLSQGIEQNKEVKAGTTVEIKVNKIE` . Value?
Reply: 0.22

Query: Suppose we examine the sequence `HMGADSFTGYTPIHKIDNPSDGINDGASYVVYFQKDGTDPTEFYKAVNANASTLAQLTSGTEYDLASSKKL` ; what soluble fraction (log2) value has been reported?
Reply: -0.722

Query: Sample `HMGGPEPIPAQIREGDTVYVTKFKQLGLVLKISEDTAEVQIGPLRATVAKTELSKVDATATEHR` — what was its soluble fraction (log2)?
Reply: -0.0107

Query: Consider the sequence shown here: `HMQTAAANPSPESILQAREAAGLSQSEAGALIYSGLRSWQHWEWGTRRMHPGLFELFLKKTGQI` What is its recorded soluble fraction (log2)?
Reply: -1.02

Query: Consider the sequence `HMKKEDFLEILRDYLKKGFSEDEVMDILRDYEEYFVDGIIEGKSEIEIIQSLGSPKEIANELLAES` and give its measured soluble fraction (log2).
Reply: -0.754

Query: Quick check: soluble fraction (log2) of `HMKGEKVTKIELSNFIKFLINDLENKGFFNPPEKKDSMIDNIYSIYNKMTLTKKELNMLWGMHKKLK` ?
Reply: -0.676

----------
Assay: soluble fraction after stress (log2 fold change); higher = more stays soluble; pooled small domains, quantitative proteomics
Settings: stress: pH 4
// no (0) strictly below -0.2 in soluble fraction (log2); yes (1) otherwise

Check out these entries, answers already filled in.
INSERT INTO results (residue_codes, cat) VALUES
  ('HMASISDRIRLLRAESHMTQEEFGRIFGISKPTVSFYEHGKSVPNDQIKTAIARYFGVSVDYLLGVTD', 'no (0)'),
  ('HMVQVHEWTNKAGRTIKAKFVRGDAQSVTIFLGGRNFVLKIADLSEESQALARKLSAPPPPP', 'yes (1)');

Turning now to a further sequence:
Query: # bool: soluble fraction (log2) of `HMPKHHIESVIPENFAGERLDKVLAVLWGTFSRAQLTRWIRDGSLLLDGHKVKPNTKVDGSEKIVLQAEVA` >= -0.2
Reply: yes (1)

----------
Assay: soluble fraction after stress (log2 fold change); higher = more stays soluble; pooled small domains, quantitative proteomics
Details: stress: pH 4
# maps each entry to its soluble fraction (log2)
Just the number, please.

Query: # soluble fraction (log2) lookup, item `HMDRRDEYHQHLLRLLLSGEIRDKDELQRRKVKLSGEYGLAGVPKNSETLALVPPDRLPEVLDILR`
Reply: -0.289

Query: Which soluble fraction (log2) is reported for this sequence? `HMAAPELLTVRERQVAALISDGLSNQQIAHRLHLEVTTVKAHIGSIFNRLDMNNRVQIAIWAHDRQLVFS`
Reply: 0.0815

Query: What value of measured soluble fraction (log2) is listed for `HMPPENVSVRREQIAEDKKTVYNVWVTKGNKTVLYSKVVYAWGGVYFFRDLNTSISENMYKQADAGLVN` ?
Reply: -0.0222

----------
Experiment: soluble fraction after stress (log2 fold change); higher = more stays soluble; pooled small domains, quantitative proteomics
Settings: stress: pH 4
value.type: soluble fraction (log2)
Keep the answer to the number alone.

Query: Look at this sequence and give its reported soluble fraction (log2). `HMGMTAPIPGVVLKVSVLPGQKVERGDELLTIEAMKMFNVMRSPSSGTIATVHIKDGDRVVQGQPLVTFA`
Reply: 0.113

Query: Form field: reported soluble fraction (log2) of `HMRSQLALVVRTGESQRLDNFLVNNLAWKSRNRLQGLIREGLVTVNGEKTKASRRVHLDDLVEIHL`
Reply: -0.0501

Query: Given `HMDSYADVLSDYRGKYKTNTISGLKGLRDKIREDMLAAADSLDFEKAALLRDEMNDLNKKIELKEKT` , state its recorded soluble fraction (log2).
Reply: -0.486

Query: Endpoint output: soluble fraction (log2) of `HMERNAEDFAAKYQEIYQDMFRFALYTLKNRQEAEDVVSETVLDAWKGIEGLKNESAFSAWMFRILVNK` . Value?
Reply: -0.325
